TARGET_OR_SYSTEM: recombinant human Meningioma Expressed Antigen 5 (MGEA5), also referred to as O-GlcNAcase (OGA) (Homo sapiens)
Construct: Full length OGA enzyme was purchased at OriGene (cat # TP322411); purchased OriGene TP322411
Sequence (O60502 1-916): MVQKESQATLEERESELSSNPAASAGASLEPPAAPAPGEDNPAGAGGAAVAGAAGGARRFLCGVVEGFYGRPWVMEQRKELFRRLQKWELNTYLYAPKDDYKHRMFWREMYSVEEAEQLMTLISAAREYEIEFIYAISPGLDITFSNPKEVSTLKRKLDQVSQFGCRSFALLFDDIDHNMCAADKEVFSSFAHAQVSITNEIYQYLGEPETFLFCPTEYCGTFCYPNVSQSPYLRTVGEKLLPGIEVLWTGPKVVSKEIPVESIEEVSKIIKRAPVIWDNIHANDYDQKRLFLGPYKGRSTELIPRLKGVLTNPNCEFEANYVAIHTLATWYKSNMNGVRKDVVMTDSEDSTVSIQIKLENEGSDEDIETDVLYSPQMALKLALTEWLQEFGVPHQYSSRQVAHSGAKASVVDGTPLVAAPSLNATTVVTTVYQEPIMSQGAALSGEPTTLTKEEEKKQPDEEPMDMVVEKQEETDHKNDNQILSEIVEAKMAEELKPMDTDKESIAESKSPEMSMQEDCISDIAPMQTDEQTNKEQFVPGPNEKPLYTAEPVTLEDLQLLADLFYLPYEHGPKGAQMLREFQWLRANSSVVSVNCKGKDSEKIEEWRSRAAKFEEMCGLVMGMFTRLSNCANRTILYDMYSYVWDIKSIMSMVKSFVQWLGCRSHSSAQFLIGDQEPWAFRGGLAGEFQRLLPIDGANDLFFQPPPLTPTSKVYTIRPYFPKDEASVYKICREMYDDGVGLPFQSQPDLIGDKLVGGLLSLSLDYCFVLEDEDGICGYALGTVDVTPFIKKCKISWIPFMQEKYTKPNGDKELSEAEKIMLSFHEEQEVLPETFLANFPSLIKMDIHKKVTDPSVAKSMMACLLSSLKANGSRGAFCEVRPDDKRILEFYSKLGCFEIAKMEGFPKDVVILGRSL
PROTOCOL_NOTES: OGA biochemical assay: inhibition of FM-GlcNAc hydrolysis, fluorescence (protocol A 10 nM OGA, 1 h; protocol B 2 nM OGA, 6 h)
RECORDED_CONDITIONS: Enzymatic protocol B (2 nM OGA, 6 h); read-out: Enzymatic hOGA; pIC50 (converted)
# maps each entry to its IC50
Report the figure in nM without appending any unit label.

Worked examples, 5 compounds total:
CC(=O)Nc1ncc(CN2CCCC(c3cc4cnccc4[nH]3)C2)s1 (single isomer, unassigned) [Compound 13]; 22.9
CC(=O)Nc1ncc(CN2CCC[C@H](c3cc4ncccc4[nH]3)C2)s1 (single isomer, unassigned) [Compound 7]; 25.1
CC(=O)Nc1ncc(CN2CCC(Cc3cc4cnccc4n3C)C2)s1 (stereo not shown) [Compound 61]; 1.51
CC(c1ccc2c(c1)OCO2)N1CCCC(c2cc3ncccc3n2C)C1 (racemic) [Compound 44]; 83.2
Cn1c(C2CCCN(Cc3ccc4scnc4c3)C2)cc2ncccc21 (stereo not shown) [Compound 53]; 832

With those in mind, consider the next compound.
Problem: Given the compound Cn1c(C2CCCN(Cc3cc4c(cn3)OCCO4)C2)cc2ncccc21 (stereo not shown) [Compound 50] , write its reported IC50.
Result: 8710

Entry source: patent US20190359609A1
